Biological target: human CD33 G220A (human, UniProt P20138 18-364)
Sequence (P20138 18-364 G220A limits assumed): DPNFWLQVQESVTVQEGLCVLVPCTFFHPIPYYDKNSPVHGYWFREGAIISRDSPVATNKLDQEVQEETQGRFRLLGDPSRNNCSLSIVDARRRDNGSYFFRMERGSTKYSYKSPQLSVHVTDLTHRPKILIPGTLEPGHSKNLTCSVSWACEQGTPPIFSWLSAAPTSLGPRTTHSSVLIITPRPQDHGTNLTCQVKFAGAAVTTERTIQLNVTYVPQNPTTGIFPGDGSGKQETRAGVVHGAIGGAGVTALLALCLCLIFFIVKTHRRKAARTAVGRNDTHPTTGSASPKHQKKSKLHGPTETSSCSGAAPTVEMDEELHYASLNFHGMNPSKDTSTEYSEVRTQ
Assay: alanine scan, flow cytometry, HEK293-T;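 further: antibody binding to each alanine-substituted CD33 mutant expressed transiently in HEK293-T, read as fluorescence minus background, mean of duplicates, relative to wild-type CD33 set as 100%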
Collected Mean % WT Binding values appear next to each entry.
Test Readout: Mean % WT Binding (%)

>>> reported_result("Refmab #4 (antibody, V domains shown, In the alanine scan antibodies were used as IgG or Fab) VH: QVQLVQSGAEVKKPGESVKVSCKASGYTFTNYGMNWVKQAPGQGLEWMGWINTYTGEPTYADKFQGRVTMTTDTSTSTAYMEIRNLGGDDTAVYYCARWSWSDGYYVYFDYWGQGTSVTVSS VL: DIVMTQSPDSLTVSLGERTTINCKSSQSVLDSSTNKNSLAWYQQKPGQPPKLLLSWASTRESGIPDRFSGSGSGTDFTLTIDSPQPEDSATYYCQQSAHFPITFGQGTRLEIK")
115
>>> reported_result("Refmab #2 (antibody, V domains shown, In the alanine scan antibodies were used as IgG or Fab) VH: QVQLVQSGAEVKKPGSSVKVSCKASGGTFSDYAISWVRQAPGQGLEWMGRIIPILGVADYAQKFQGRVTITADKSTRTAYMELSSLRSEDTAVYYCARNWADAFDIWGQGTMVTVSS VL: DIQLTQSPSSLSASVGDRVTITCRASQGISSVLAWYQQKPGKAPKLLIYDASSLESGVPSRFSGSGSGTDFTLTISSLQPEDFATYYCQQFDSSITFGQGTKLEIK")
132
>>> reported_result("Refmab #3 (antibody, V domains shown, In the alanine scan antibodies were used as IgG or Fab) VH: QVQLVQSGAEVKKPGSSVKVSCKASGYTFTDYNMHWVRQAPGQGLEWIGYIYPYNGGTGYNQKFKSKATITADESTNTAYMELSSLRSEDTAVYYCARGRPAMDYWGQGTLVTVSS VL: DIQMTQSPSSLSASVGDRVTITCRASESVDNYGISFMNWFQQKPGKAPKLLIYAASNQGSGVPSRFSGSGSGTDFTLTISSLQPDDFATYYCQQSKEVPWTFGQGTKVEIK")
114
>>> reported_result("Refmab #1 (antibody, V domains shown, In the alanine scan antibodies were used as IgG or Fab; also called hP67.6) VH: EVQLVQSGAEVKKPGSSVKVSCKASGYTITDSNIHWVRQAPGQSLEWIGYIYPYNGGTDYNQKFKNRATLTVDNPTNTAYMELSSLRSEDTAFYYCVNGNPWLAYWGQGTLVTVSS VL: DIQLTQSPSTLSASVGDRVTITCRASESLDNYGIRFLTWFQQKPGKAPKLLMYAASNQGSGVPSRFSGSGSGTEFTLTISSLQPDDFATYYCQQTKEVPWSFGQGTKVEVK")
104
